These entries and their values trace back to patent US10570121B2.

Tested on: WT EZH2 (Homo sapiens (Human), UniProt Q15910)
Sequence (Q15910 whole entry, looked up): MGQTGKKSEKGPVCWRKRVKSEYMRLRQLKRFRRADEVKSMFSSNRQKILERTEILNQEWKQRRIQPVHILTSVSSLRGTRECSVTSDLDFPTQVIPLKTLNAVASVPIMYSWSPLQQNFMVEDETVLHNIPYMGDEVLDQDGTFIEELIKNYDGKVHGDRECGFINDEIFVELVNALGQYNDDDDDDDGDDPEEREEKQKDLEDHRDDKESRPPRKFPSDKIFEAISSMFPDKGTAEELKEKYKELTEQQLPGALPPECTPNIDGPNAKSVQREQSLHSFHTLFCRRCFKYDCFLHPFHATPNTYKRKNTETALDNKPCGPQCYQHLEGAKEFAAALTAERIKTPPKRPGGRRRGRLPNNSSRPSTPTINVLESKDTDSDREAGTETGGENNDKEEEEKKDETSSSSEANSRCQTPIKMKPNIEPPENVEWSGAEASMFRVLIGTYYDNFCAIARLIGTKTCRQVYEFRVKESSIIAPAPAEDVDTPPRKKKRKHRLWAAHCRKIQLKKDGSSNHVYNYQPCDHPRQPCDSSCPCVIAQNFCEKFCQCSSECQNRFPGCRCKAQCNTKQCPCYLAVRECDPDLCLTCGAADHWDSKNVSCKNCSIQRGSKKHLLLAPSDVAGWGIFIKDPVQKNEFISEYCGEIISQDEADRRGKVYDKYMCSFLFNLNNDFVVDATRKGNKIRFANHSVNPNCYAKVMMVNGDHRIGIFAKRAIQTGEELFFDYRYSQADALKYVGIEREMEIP
Sequence (O75530 whole entry partner, looked up): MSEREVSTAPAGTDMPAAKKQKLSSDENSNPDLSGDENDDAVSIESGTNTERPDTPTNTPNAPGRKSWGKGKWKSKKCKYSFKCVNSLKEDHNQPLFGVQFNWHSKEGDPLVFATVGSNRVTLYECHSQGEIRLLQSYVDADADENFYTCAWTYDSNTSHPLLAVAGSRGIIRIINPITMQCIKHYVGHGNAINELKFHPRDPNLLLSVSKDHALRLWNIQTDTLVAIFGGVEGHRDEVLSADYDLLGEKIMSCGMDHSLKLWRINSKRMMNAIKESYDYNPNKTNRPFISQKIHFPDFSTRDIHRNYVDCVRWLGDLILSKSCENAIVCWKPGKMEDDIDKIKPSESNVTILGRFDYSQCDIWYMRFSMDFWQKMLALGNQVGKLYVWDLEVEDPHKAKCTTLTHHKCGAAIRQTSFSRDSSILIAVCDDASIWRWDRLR
Sequence (Q15022 whole entry partner, looked up): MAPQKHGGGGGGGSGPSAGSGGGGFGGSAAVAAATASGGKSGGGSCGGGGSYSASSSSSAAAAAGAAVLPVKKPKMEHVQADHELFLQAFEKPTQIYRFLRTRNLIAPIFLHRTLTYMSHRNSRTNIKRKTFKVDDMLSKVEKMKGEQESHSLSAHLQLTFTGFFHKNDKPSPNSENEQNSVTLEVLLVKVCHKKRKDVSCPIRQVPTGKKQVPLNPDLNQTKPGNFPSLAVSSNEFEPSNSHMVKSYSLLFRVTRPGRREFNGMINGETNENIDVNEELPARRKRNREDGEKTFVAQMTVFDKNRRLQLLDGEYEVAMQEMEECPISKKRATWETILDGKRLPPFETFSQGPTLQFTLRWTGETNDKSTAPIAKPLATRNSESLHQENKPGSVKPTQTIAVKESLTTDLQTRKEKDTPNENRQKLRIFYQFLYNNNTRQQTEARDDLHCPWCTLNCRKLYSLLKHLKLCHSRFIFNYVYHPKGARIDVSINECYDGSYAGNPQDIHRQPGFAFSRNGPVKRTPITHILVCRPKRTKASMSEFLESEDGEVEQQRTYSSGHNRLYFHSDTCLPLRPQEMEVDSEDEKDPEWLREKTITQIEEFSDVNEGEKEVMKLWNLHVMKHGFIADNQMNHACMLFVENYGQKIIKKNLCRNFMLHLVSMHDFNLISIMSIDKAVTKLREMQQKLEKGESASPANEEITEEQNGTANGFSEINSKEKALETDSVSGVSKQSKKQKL
Sequence (Q09028 whole entry partner, looked up): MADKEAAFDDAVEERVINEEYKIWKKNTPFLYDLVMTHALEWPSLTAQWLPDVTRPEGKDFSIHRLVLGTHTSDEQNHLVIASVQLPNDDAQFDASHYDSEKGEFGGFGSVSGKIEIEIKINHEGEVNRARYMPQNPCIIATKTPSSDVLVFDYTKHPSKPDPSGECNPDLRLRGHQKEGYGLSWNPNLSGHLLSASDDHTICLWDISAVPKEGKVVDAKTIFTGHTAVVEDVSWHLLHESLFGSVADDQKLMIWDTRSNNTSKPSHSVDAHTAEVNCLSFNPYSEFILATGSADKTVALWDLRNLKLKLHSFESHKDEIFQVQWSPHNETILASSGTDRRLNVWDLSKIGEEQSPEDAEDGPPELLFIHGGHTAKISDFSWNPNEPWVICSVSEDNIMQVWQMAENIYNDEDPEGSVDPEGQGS
Assay overview: WT EZH2 nucleosome assay (10X SAM, high SAM conditions)
Type: biochemical
Run conditions: 15 uM SAM, Ki app from competitive inhibition fit, read-out: WT EZH2 Nucleosome assay (10X SAM) Ki
Measurement name: log10 Ki (log10 of the value in nM)
Log10 applied to Ki; unit prior to transform: nM.

A selection of reference data follows.
{"Compound": "COC(c1cc(Br)c2c(c1Cl)C(=O)N(Cc1c(C)cc(C)[nH]c1=O)CC2)C1CCN(C)CC1 (single isomer, unassigned) [Example 146]", "log10 Ki": -1.00}
{"Compound": "COC(c1cc(Cl)c2c(c1Cl)C(=O)N(Cc1c(C)cc(C)[nH]c1=O)CC2)C1CN(S(C)(=O)=O)C1 (single isomer, unassigned) [Example 177]", "log10 Ki": 1.69}
{"Compound": "Cc1cc(C)c(CN2CCc3c(Cl)cc(C(CO)N4CC[C@H](F)C4)c(Cl)c3C2=O)c(=O)[nH]1 (stereo partly drawn) [Example 58]", "log10 Ki": 1.76}
{"Compound": "Cc1cc(C)c(CN2CCc3c(Cl)cc(C(C)N4CCNCC4)c(Cl)c3C2=O)c(=O)[nH]1 (racemic)", "log10 Ki": -0.15}
{"Compound": "COC(c1cc(Cl)c2c(c1Cl)C(=O)N(Cc1c(C)cc(C)[nH]c1=O)CC2)C1CCS(=O)(=O)C1 (single isomer, unassigned) [Example 151]", "log10 Ki": -0.10}

Ask: Requested field: log10 Ki. Item: COC(c1cc(Cl)c2c(c1Cl)C(=O)N(Cc1c(C)cc(C)[nH]c1=O)CC2)C1(F)CCN(C)CC1 (single isomer, unassigned) [Example 120]
Result: 0.30

Ask: Requested field: log10 Ki. Item: COc1cc(C)[nH]c(=O)c1CN1CCc2c(Cl)cc([C@H](OC)C3COC3)c(Cl)c2C1=O
Result: -0.70

Ask: Requested field: log10 Ki. Item: COC(c1ccc2c(c1Cl)C(=O)N(Cc1c(C)cc(C)[nH]c1=O)CC2)C1CCOC1 (single isomer, unassigned) [Example 133]
Result: 2.92

Ask: Requested field: log10 Ki. Item: COC(c1cc(Cl)c2c(c1Cl)C(=O)N(Cc1c(C)cc(C)[nH]c1=O)CC2)C1CCS(=O)(=O)C1 (single isomer, unassigned) [Example 150]
Result: -1.00

Ask: Requested field: log10 Ki. Item: COC(c1cc(Cl)c2c(c1Cl)C(=O)N(Cc1c(C)cc(C)[nH]c1=O)CC2)C1CN(S(C)(=O)=O)C1 (single isomer, unassigned) [Example 176]
Result: -0.52

Ask: Requested field: log10 Ki. Item: Cc1cc(C)c(CN2CCc3c(Cl)cc([C@@H](CC#N)[C@@H]4CCOC4)c(Cl)c3C2=O)c(=O)[nH]1 (single isomer, unassigned)
Result: 0.60

Ask: Requested field: log10 Ki. Item: COC(c1cc(Cl)c2c(c1Cl)C(=O)N(Cc1c(C)cc(C)[nH]c1=O)CC2)C1CN(C)C1 (single isomer, unassigned) [Example 175]
Result: 1.93

###

Tested on: WT EZH2 (Homo sapiens (Human), UniProt Q15910)
Assay overview: WT EZH2 nucleosome assay (10X SAM, high SAM conditions)
Format: biochemical
Run conditions: 15 uM SAM, Ki app from competitive inhibition fit, read-out: WT EZH2 Nucleosome assay (10X SAM) Ki
Mark YES only when Ki stays strictly below 9 nM. Values equal to the cut-off are NO.

{"Compound": "COC(c1cc(Cl)c2c(c1Cl)C(=O)N(Cc1c(C)cc(C)[nH]c1=O)CC2)[C@H](C)CO (single isomer, unassigned) [Example 140]", "Answer label": "NO"}
{"Compound": "Cc1cc(C)c(CN2CCc3c(Cl)cc([C@@H](C)CO)c(Cl)c3C2=O)c(=O)[nH]1", "Answer label": "NO"}
{"Compound": "Cc1cc(C)c(CN2CCc3c(Cl)cc(C(C)C4CN(C)C4)c(Cl)c3C2=O)c(=O)[nH]1 (single isomer, unassigned) [Example 187]", "Answer label": "YES"}

Ask: # check: Ki < 9 nM for COC(c1cc(Cl)c2c(c1Cl)C(=O)N(Cc1c(C)cc(C)[nH]c1=O)CC2)C1CCN(C(=O)CC#N)CC1 (single isomer, unassigned)
Result: NO

Ask: # check: Ki < 9 nM for COc1cc(C)[nH]c(=O)c1CN1CCc2c(Cl)cc([C@H](CO)[C@@H]3CCCO3)c(Cl)c2C1=O
Result: YES
